tested on: Candida albicans; test: Antimicrobial activity against Candida albicans DSM 70014 after 48 hr by two-fold serial broth dilution method; format: functional; conditions: DSM 70014, 48 h
Exercise: for every item that follows, state its recorded MFC.
# unit: µg/mL | format: bare number

Specify measured MFC for COc1ccc(OC)c(/C=C/c2nnc(SCC(=O)c3cc(O)ccc3O)n2-c2ccc(Cl)cc2)c1 . 50

Report MFC for COc1ccc(OC)c(/C=C/c2nnc(SC)n2-c2ccc(C)cc2)c1 50

Kindly indicate its recorded MFC. Item: COc1ccc(OC)c(/C=C/c2nnc(Nc3ccc(C)cc3)o2)c1 100

Please report the measured MFC for COc1ccc(OC)c(/C=C/c2nnc(S)n2-c2ccc(Cl)cc2)c1 100

Please look at this compound and report its MFC: COc1ccc(OC)c(/C=C/c2nnc(Nc3ccc(C)cc3)s2)c1 50

Query MFC for COc1ccc(OC)c(/C=C/C(=O)N/N=C/c2ccc(Cl)cc2)c1 50

Output MFC of COc1ccc(OC)c(/C=C/C2=NN(C(C)=O)C(c3ccccc3)O2)c1 (centres undefined) 50

Identify measured MFC corresponding to CCSc1nnc(/C=C/c2cc(OC)ccc2OC)n1-c1ccccc1 50

Supply measured MFC of COc1ccc(OC)c(/C=C/c2nnc(Nc3ccccc3)o2)c1 in your reply. 50

Find the measured MFC of COc1ccc(OC)c(/C=C/c2nnc(SC)n2-c2ccc(Cl)cc2)c1 and report it. 100

Quickly give me recorded MFC for COc1ccc(OC)c(/C=C/C(=O)N/N=C/c2ccc([N+](=O)[O-])cc2)c1 50

Give me measured MFC, please, for this compound: CCSc1nnc(/C=C/c2cc(OC)ccc2OC)n1-c1ccc(Cl)cc1 50

Report MFC for COc1ccc(OC)c(/C=C/c2nnc(SCC(=O)c3cc(O)ccc3O)n2-c2ccc(C)cc2)c1 25

Input COc1ccc(OC)c(/C=C/c2nnc(S)n2-c2ccc(C)cc2)c1 , output reported MFC. 50

Input CCSc1nnc(/C=C/c2cc(OC)ccc2OC)n1-c1ccc(C)cc1 , output reported MFC. 100

Provide one value: measured MFC of COc1ccc(OC)c(/C=C/c2nnc(Nc3ccc(Cl)cc3)o2)c1 50

Respond only with MFC recorded for COc1ccc(OC)c(/C=C/c2nnc(SCC(=O)c3cc(O)ccc3O)n2-c2ccccc2)c1 50

Given COc1ccc(OC)c(/C=C/c2nnc(Nc3ccccc3)s2)c1 , respond with its MFC. 50

Give the measured MFC for COc1ccc(OC)c(/C=C/C2=NN(C(C)=O)C(c3ccc(Cl)cc3)O2)c1 (centres undefined) 100

Using known records, supply MFC for COc1ccc(OC)c(/C=C/C(=O)N/N=C/c2ccccc2)c1 100

Look up and state reported MFC for COc1ccc(OC)c(/C=C/C2=NN(C(C)=O)C(c3ccc([N+](=O)[O-])cc3)O2)c1 (centres undefined) 100

Please report MFC for the following compound: COc1ccc(OC)c(/C=C/c2nnc(S)n2-c2ccccc2)c1 100

Note MFC for the compound shown: COc1ccc(OC)c(/C=C/c2nnc(Nc3ccc(Cl)cc3)s2)c1 50

Please give the documented MFC of COc1ccc(OC)c(/C=C/c2nnc(SC)n2-c2ccccc2)c1 50

----------
test system: HT-29; assay: Anticancer activity against Homo sapiens (human) HT-29 cells after 48 hr by SRB assay; format: functional; conditions: HT-29, 48 h
readout_name: GI50 (µM)
// note: answer is a bare numeric in µM

// fetch GI50 given entry COc1ccc(OC)c(/C=C/c2nnc(S)n2-c2ccc(Cl)cc2)c1 3.67

Return value of GI50 for input COc1ccc(OC)c(/C=C/C(=O)N/N=C/c2ccc(Cl)cc2)c1 , no commentary. 0.0435

Fill in reported GI50 for this entry: COc1ccc(OC)c(/C=C/c2nnc(Nc3ccc(Cl)cc3)o2)c1 9.44

Assign GI50 to the following record: COc1ccc(OC)c(/C=C/C(=O)N/N=C/c2ccccc2)c1 2.1
